# system-under-test: PeaDOP2A receptor (Periplaneta americana)
# test: cAMP production in HEK 293 cells stably expressing PeaDOP2A
# Type: cell-based
# conditions: PeaDOP2A-expressing cells; ligand 10 μM
Structures can show the parent of a compound that is named as a salt.
readout: effect on [cAMP]i (agonist, in words)

[
  {
    "molecule": "NCC(O)c1ccc(O)cc1 (racemic) [octopamine, (±)-octopamine hydrochloride]",
    "assay-value": "no effect"
  },
  {
    "molecule": "NCCc1c[nH]cn1 [histamine, histamine dihydrochloride]",
    "assay-value": "no effect"
  },
  {
    "molecule": "NCCc1ccc(O)cc1 [tyramine, tyramine hydrochloride]",
    "assay-value": "no effect"
  },
  {
    "molecule": "Cl.NCCc1c[nH]c2ccc(O)cc12 [serotonin, 5-hydroxytryptamine hydrochloride]",
    "assay-value": "no effect"
  }
]

====

The reader will find reported IC50 values listed item by item below.
# system-under-test: PeaDOP2A receptor (Periplaneta americana, UniProt V6DNI7)
# Sequence (V6DNI7 entry or part of it): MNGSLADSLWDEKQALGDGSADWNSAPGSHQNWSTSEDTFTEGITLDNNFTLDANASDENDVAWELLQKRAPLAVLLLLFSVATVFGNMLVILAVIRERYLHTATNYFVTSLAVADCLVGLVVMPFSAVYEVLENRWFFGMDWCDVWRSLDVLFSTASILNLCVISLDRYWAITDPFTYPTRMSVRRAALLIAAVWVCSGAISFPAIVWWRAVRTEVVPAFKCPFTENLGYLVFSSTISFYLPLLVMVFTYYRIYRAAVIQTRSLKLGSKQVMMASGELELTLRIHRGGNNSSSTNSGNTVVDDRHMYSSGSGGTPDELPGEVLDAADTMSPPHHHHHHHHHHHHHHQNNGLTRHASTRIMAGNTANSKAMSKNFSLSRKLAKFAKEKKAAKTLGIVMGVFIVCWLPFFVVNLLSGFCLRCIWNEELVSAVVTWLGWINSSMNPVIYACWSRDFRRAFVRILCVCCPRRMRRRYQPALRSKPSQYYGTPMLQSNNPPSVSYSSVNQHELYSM
# test: cAMP production in HEK 293 cells stably expressing PeaDOP2A
# Format: cell-based
# conditions: log IC50, antagonist; log of molar IC50 (negative values); in the presence of 300 nM dopamine
Where a name gives a salt, the structure may show the parent alone.
Dear colleague, please return just the value in nM, with no unit written.

[
  {
    "compound": "CN(C)CCCN1c2ccccc2Sc2ccc(Cl)cc21 [chlorpromazine, Chlorpromazine hydrochloride]",
    "assay-value": 2.7
  }
]

Now look at this one.
Lookup: Output measured IC50 for this item: CC(C)(C)[C@]1(O)CCN2C[C@H]3c4ccccc4CCc4cccc(c43)[C@@H]2C1 [butaclamol, S(+)-butaclamol hydrochloride]
Found: 326

====

# system-under-test: PeaDOP2A receptor (Periplaneta americana)
# test: cAMP production in HEK 293 cells stably expressing PeaDOP2A
# Type: cell-based
# conditions: IC50 for blocking dopamine (300 nM)-induced cAMP increase, antagonist; in the presence of 300 nM dopamine; PeaDOP2A-expressing HEK 293 cells
Counter-ions that a name gives are not always drawn.
Each item that follows carries a reported IC50.
Quick note: unit goes after the number.

[
  {
    "compound": "CC(C)(C)[C@]1(O)CCN2C[C@H]3c4ccccc4CCc4cccc(c43)[C@@H]2C1 [butaclamol, S(+)-butaclamol hydrochloride]",
    "system-under-test": "PeaDOP2A receptor (Periplaneta americana)",
    "IC50": "326 nM"
  }
]

Now for a further compound.
Lookup: Supply recorded IC50 for CN(C)CCCN1c2ccccc2Sc2ccc(Cl)cc21 [chlorpromazine, Chlorpromazine hydrochloride] here.
Found: 2.7 nM

Data origin, for the record: paper PMC3907829
